The entries below are paired with their reported Relative activity of L-Ala-L-Gln production (%).
Test system: peptide-producing enzyme (Mono S fraction) from Empedobacter brevis strain FERM BP-8113
ASSAY INFO: Enzyme inhibitors: effect on production of L-alanyl-L-glutamine
Format: biochemical
TEST SETTINGS: inhibitor at 10 mM, pH 9.0, 25° C., 5 minutes; 100 = absence of enzyme inhibitor
ENDPOINT LABEL: Relative activity of L-Ala-L-Gln production (%)

{"columns": ["COMPOUND", "TARGET OR SYSTEM", "OBSERVED"],
 "data": [
  ["O=S(=O)(F)Cc1ccccc1 [Phenylmethylsulfonyl fluoride]", "peptide-producing enzyme (Mono S fraction) from Empedobacter brevis strain FERM BP-8113", 115],
  ["c1cnc2c(c1)ccc1cccnc12", "peptide-producing enzyme (Mono S fraction) from Empedobacter brevis strain FERM BP-8113", 96],
  ["O=C(O)CN(CCN(CC(=O)O)CC(=O)O)CC(=O)O", "peptide-producing enzyme (Mono S fraction) from Empedobacter brevis strain FERM BP-8113", 96],
  ["CCN1C(=O)C=CC1=O [N-Ethyl maleimide]", "peptide-producing enzyme (Mono S fraction) from Empedobacter brevis strain FERM BP-8113", 110],
  ["N=C(N)Nc1ccc(C(=O)Oc2ccc([N+](=O)[O-])cc2)cc1 [p-Nitrophenyl-p′-guanidino benzoate, p-nitrophenyl-p′-guanidinobenzoate]", "peptide-producing enzyme (Mono S fraction) from Empedobacter brevis strain FERM BP-8113", 0.1]
]}

Cited source: patent US20040253665A1
